Test system: α-glucosidase
protocolDetails: Hydrolysis by α-glucosidase derived from rice
Type: biochemical
runConditions: pH 4.0, 37°C., 18 hours
A collection of molecules and their measured Saccharide composition of hydrolysate by α-glucosidase: Trehalose
property: Saccharide composition of hydrolysate by α-glucosidase: Trehalose (%)

# smilesNotation, readoutValue
records = [
    ("OC[C@H]1O[C@H](O[C@H]2O[C@H](CO)[C@@H](O[C@H]3O[C@H](CO)[C@@H](O[C@H]4O[C@H](CO)[C@@H](O[C@H]5O[C@H](CO)[C@@H](O)[C@H](O)[C@H]5O)[C@H](O)[C@H]4O)[C@H](O)[C@H]3O)[C@H](O)[C@H]2O)[C@H](O)[C@@H](O)[C@@H]1O", 38.1),
    ("OC[C@H]1O[C@H](O[C@H]2O[C@H](CO)[C@@H](O[C@H]3O[C@H](CO)[C@@H](O[C@H]4O[C@H](CO)[C@@H](O)[C@H](O)[C@H]4O)[C@H](O)[C@H]3O)[C@H](O)[C@H]2O)[C@H](O)[C@@H](O)[C@@H]1O", 47.6),
    ("OC[C@H]1O[C@H](O[C@H]2O[C@H](CO)[C@@H](O[C@H]3O[C@H](CO)[C@@H](O)[C@H](O)[C@H]3O)[C@H](O)[C@H]2O)[C@H](O)[C@@H](O)[C@@H]1O", 63.0),
    ("OC[C@H]1O[C@H](O[C@H]2O[C@H](CO)[C@@H](O[C@H]3O[C@H](CO)[C@@H](O[C@H]4O[C@H](CO)[C@@H](O[C@H]5O[C@H](CO)[C@@H](O[C@H]6O[C@H](CO)[C@@H](O)[C@H](O)[C@H]6O)[C@H](O)[C@H]5O)[C@H](O)[C@H]4O)[C@H](O)[C@H]3O)[C@H](O)[C@H]2O)[C@H](O)[C@@H](O)[C@@H]1O", 30.2),
    ("OC[C@H]1O[C@H](O[C@H]2O[C@H](CO)[C@@H](O[C@H]3O[C@H](CO)[C@@H](O[C@H]4O[C@H](CO)[C@@H](O[C@H]5O[C@H](CO)[C@@H](O[C@H]6O[C@H](CO)[C@@H](O[C@H]7O[C@H](CO)[C@@H](O)[C@H](O)[C@H]7O)[C@H](O)[C@H]6O)[C@H](O)[C@H]5O)[C@H](O)[C@H]4O)[C@H](O)[C@H]3O)[C@H](O)[C@H]2O)[C@H](O)[C@@H](O)[C@@H]1O", 28.3),
]
